# subjectOfTest: T1, CRBN, Q96SW2
# T1 chain: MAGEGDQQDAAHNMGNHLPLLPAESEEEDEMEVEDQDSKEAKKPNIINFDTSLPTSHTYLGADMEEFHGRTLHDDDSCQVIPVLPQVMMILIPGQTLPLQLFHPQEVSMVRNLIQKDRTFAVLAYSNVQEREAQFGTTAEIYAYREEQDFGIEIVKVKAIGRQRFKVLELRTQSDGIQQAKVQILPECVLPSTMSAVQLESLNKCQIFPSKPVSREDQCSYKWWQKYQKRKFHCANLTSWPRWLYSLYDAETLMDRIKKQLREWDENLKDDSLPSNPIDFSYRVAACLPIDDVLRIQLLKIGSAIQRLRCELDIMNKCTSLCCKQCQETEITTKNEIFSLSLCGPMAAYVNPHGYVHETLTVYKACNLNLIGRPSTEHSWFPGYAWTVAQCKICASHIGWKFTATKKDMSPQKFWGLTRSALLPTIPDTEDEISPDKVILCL
# measurementProtocol: log2 fold change of degron read counts, EGFP-low vs EGFP+ sorted cells (limma voom), compound-induced degradation; higher = more compound-induced degradation of the degron-EGFP fusion; degrons are variants of IKZF1/3 zinc finger 2; compound dose not given here;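 also: pooled lentiviral library of zinc finger degron-EGFP fusions in mCherry-positive Jurkat cells, FACS-sorted after compound exposure, with degron abundance counted by next-generation sequencing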
# testSettings: Jurkat; 18 h; compound: compound 19 (5-tert-butyl-thalidomide)
Whole data set: some 8,300 sequences, median “log2 fold change of degron read counts, EGFP-low vs EGFP+ sorted cells (limma voom), compound-induced degradation” near -1.1, cut for the highest 2% near 3.2. The sample as a whole holds a higher share of the highest values than the screen did.

[
  {
    "residueSequence": "FMCPICGAAFTQKGNLLRHIKL [46F_47M_49P_50I_52G_53A_54A_55F_67L_, Q9UKT9]",
    "log2 fold change of degron read counts": 2.31
  },
  {
    "residueSequence": "FRCDQCGAHFTQKGNLLRHIKL [46F_47R_49D_50Q_52G_53A_54H_55F_67L_, Q9UKT9]",
    "log2 fold change of degron read counts": -2.76
  },
  {
    "residueSequence": "FDCPICGRMFTQKGNLLRHIKL [46F_47D_49P_50I_52G_53R_54M_55F_67L_, Q9UKT9]",
    "log2 fold change of degron read counts": -0.392
  },
  {
    "residueSequence": "LICEICGFVCTQKGNLLRHIKL [46L_47I_49E_50I_52G_53F_54V_55C_67L_, Q9UKT9]",
    "log2 fold change of degron read counts": -0.507
  }
]
